Hello, the source for this data is patent US20250195685A1, in case you need it.

Give pKd for every item shown.
biological target: T1, human CD8αα homodimer, recombinant protein (Acro Biosystems) (human, UniProt P01732 22-182); assay: BLI steady state, whole hIgG1-LALAPA antibody on CD8α-His (Ni-NTA sensor), 30 °C
T1 construct: also called CD8αα antigen; biotinylated CD8α recombinant protein (CDA-H82E3)
T1 sequence (P01732 22-182 limits assumed): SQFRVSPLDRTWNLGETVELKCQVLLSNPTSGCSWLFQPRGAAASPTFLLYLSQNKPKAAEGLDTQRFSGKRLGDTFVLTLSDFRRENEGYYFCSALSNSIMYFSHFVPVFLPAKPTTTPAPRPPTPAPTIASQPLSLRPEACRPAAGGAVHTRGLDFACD
Give bare numbers, as −log10 of the molar value.

Some solved entries appear below for comparison.
Binder	Test Result
CBD1048 (antibody, human IgG1, kappa, L234A L235A, V domains shown, also called h1017-H9/L6 whole antibody hIgG1-LALAPA) VH: QVQLVQSGAEVKKPGASVKVSCKASRYTFTDYNLHWVRQAPGQGLEWMGFIYPYNGGTGYAQKFQGRVTLTVDYSTSTAYMELSSLRSEDTAVYYCARDHRYNEGVSFDYWGQGTLVTVSS VL: EIVLTQSPGTLSLSPGERATLSCRASESVDGFGNSFMNWYQQKPGQAPRLLIYLASNLESGVPARFSGSGSRTDFTLTISRLEPEDFAVYYCQQNNEDPYTFGQGTKVEIKR	8.26
CBD1017ch whole antibody (chimeric CT8 antibody) (antibody, V domains shown, Chimeric antibody comprising the variable regions of the donor antibody CT8; detected with anti-human Fc) VH: EVQLQQSGPELVKPGASVKISCKASRYTFTDYNLHWVKLSHEKSLEWIGFIYPYNGGTGYNQKFKNKAKLTVDYSSSTAYMELRSLTSVDAAVYYCARDHRYNEGVSFDYWGQGTTLTVSS VL: NIVLTQSPASLAVSLGQRATISCRASESVDGFGNSFMNWYQQKPGQSPKLLIYLASNLESGVPARFSGSGSRTDFTLTIDPVEADDAATYYCQQNNEDPYTFGGGTKLEIK	9.24

Record pKd per entry; entries follow.
1. CBD1044 (antibody, human IgG1, kappa, L234A L235A, V domains shown, also called h1017-H7/L6 whole antibody hIgG1-LALAPA) VH: QVQLVQSGAEVKKPGASVKVSCKASRYTFTDYNLHWVRQAPGQGLEWIGFIYPYNGGTGYAQKFQGRVTITADTSTSTAYMELSSLRSEDTAVYYCARDHRYNEGVSFDYWGQGTLVTVSS VL: EIVLTQSPGTLSLSPGERATLSCRASESVDGFGNSFMNWYQQKPGQAPRLLIYLASNLESGVPARFSGSGSRTDFTLTISRLEPEDFAVYYCQQNNEDPYTFGQGTKVEIKR
2. CBD1046 (antibody, human IgG1, kappa, L234A L235A, V domains shown, also called h1017-H8/L6 whole antibody hIgG1-LALAPA) VH: QVQLVQSGAEVKKPGASVKVSCKASRYTFTDYNLHWVRQAPGQGLEWIGFIYPYNGGTGYAQKFKGRVTITADTSTSTAYMELSSLRSEDTAVYYCARDHRYNEGVSFDYWGQGTLVTVSS VL: EIVLTQSPGTLSLSPGERATLSCRASESVDGFGNSFMNWYQQKPGQAPRLLIYLASNLESGVPARFSGSGSRTDFTLTISRLEPEDFAVYYCQQNNEDPYTFGQGTKVEIKR
3. CBD1043 (antibody, human IgG1, kappa, L234A L235A, V domains shown, also called CBD1043- hIgG1LALAPA; h1017-H7/L5 whole antibody) VH: QVQLVQSGAEVKKPGASVKVSCKASRYTFTDYNLHWVRQAPGQGLEWIGFIYPYNGGTGYAQKFQGRVTITADTSTSTAYMELSSLRSEDTAVYYCARDHRYNEGVSFDYWGQGTLVTVSS VL: EIVLTQSPGTLSLSPGERATLSCRASESVDGFGNSFMNWYQQKPGQAPRLLIYLASNLESGVPARFSGSGSGTDFTLTISRLEPEDFAVYYCQQNNEDPYTFGQGTKVEIKR
4. CBD1041 (antibody, human IgG1, kappa, L234A L235A, V domains shown, also called h1017-H6/L4 whole antibody hIgG1-LALAPA) VH: QVQLVQSGAEVKKPGASVKVSCKASRYTFTDYNLHWVRQAPGQGLEWMGFIYPYNGGTNYAQKFQGRVTITADTSTSTAYMELSSLRSEDTAVYYCARDHRYNEGVSFDYWGQGTLVTVSS VL: EIVLTQSPGTLSLSPGERATLSCRASESVDGFGNSFMNWYQQKPGQAPRLLIYLASNLESGIPARFSGSGSGTDFTLTISRLEPEDFAVYYCQQNNEDPYTFGQGTKVEIKR

8.06
8.01
8.41
7.99
